Values compiled from PubChem BioAssay AID488857.

- test.protocol: ASC/caspase-1 reporter retest in S. cerevisiae at one dose, specificity check for NALP1 project (AID 488857)
- condition.set: S. cerevisiae ASC/Caspase-1, beta-galactosidase luminescence, 24 h; at 10 µM
The campaign covered roughly 1,400 compounds. About 560 (40%) were called active.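 How the source made its calls: active means mean inhibition over duplicate tests at 10 µM above 50%; inactive means the rest.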 The set was probably picked from earlier hits. The list shows a part of the results.
Possible outcomes: active, inactive

[[record]]
compound = "COC(=O)c1ccc(/C=C(\\C#N)C(=O)NC(C)c2ccccc2)cc1 (stereo unspecified)"
cat = "inactive"

[[record]]
compound = "COCCn1c(SCC(=O)NC(=O)NC(C)(C)C)nc2ccccc21"
cat = "inactive"

[[record]]
compound = "O=C(c1cnn2ccccc12)N1CCc2ccccc21"
cat = "active"

[[record]]
compound = "CSc1sc(C(=O)N2CCc3ccccc32)cc1S(=O)(=O)C(C)C"
cat = "inactive"

[[record]]
compound = "NC(=S)N/N=C/c1coc2c(ccc3ccccc32)c1=O"
cat = "active"

[[record]]
compound = "CC(C)OCCCNC(=O)c1cc2c(=O)n(C)c3ccccc3c2n1C"
cat = "inactive"

[[record]]
compound = "COc1ccc(-c2noc(CCC(=O)N3CCC(C)CC3)n2)cc1"
cat = "inactive"

[[record]]
compound = "Cc1nn(-c2ccccc2)c(Cl)c1/C=C(\\C#N)C(=O)NC(C)C"
cat = "active"

[[record]]
compound = "Cc1nc(NC(=O)/C=C/c2ccccc2)n[nH]1"
cat = "inactive"

[[record]]
compound = "C=CCNC(=O)/C(C#N)=C/c1c(C)nn(-c2ccccc2)c1Cl"
cat = "active"

[[record]]
compound = "CCOC(=O)c1c(C)n(C)c2ccc(OC)c(NC(=O)CN3CCN(C4CCCCC4)CC3)c12"
cat = "inactive"


###

- test.protocol: ASC/caspase-1 reporter retest in S. cerevisiae at one dose, specificity check for NALP1 project (AID 488857)
- condition.set: S. cerevisiae ASC/Caspase-1, beta-galactosidase luminescence, 24 h; at 10 µM
Hit rate of the full screen: of about 1,400 compounds, about 560 (40%) were called active.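 Rule for the calls: active = mean inhibition over duplicate tests at 10 µM above 50%; inactive = the rest.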 The set was probably picked from earlier hits. This is one part of the list.
Possible outcomes: active, inactive

[[record]]
compound = "Fc1ccc(N2CCN(Cc3cnc(Oc4ccc(Br)cc4)s3)CC2)cc1"
cat = "inactive"

[[record]]
compound = "N/C(Cc1ccc(Cl)cc1)=N\\OC(=O)C1CCCCC1"
cat = "inactive"

[[record]]
compound = "N/C(Cc1ccc([N+](=O)[O-])cc1)=N\\OC(=O)c1ccccc1Br"
cat = "active"

[[record]]
compound = "COc1ccc(N=c2cc(-c3ccc(OC)cc3)oc3ccccc23)cc1"
cat = "active"

[[record]]
compound = "CC(=O)c1ccc(S(=O)(=O)N2CCCC2)cc1"
cat = "inactive"

[[record]]
compound = "Oc1ccc2ccccc2c1CN1CCN(c2ccccc2)CC1"
cat = "inactive"

[[record]]
compound = "Cc1onc(-c2ccccc2Cl)c1C(=O)N1C=CC(C(F)(F)F)=NCC1"
cat = "active"

[[record]]
compound = "C=CCSc1nsc(NC(=O)Nc2ccc(F)cc2)n1"
cat = "active"

[[record]]
compound = "Cc1ccc(Nc2nnc(SCC(=O)Nc3ccc(S(=O)(=O)N4CCOCC4)cc3)s2)cc1"
cat = "inactive"

[[record]]
compound = "CN(C)CCNC=C(C(=O)Nc1ccc(Cl)cc1Cl)C(=O)Nc1ccc(Cl)cc1Cl"
cat = "inactive"

[[record]]
compound = "CCCn1nc(NC(=O)c2ccccn2)c2cc3cc(C)ccc3nc21"
cat = "inactive"

[[record]]
compound = "COc1ccccc1C/C(N)=N/OC(=O)c1cccc([N+](=O)[O-])c1C"
cat = "inactive"

[[record]]
compound = "CCC(C)C(=O)N1c2ccccc2C(=C2SC(C(=O)OC)=C(C(=O)OC)S2)C(=S)C1(C)C (configuration not stated)"
cat = "active"

[[record]]
compound = "N/C(Cc1ccccc1)=N\\OC(=O)c1cccc2ccccc12"
cat = "active"

[[record]]
compound = "O=C(Cc1ccc([N+](=O)[O-])cc1)c1ccc(O)cc1O"
cat = "inactive"

[[record]]
compound = "Cc1cccc(C(=O)NNC(=O)CN2C(=O)c3ccccc3C2=O)c1"
cat = "inactive"

[[record]]
compound = "CCSc1nnc(NC(=O)c2ccccc2)s1"
cat = "active"

